System: IGROV1 ovarian
Test: NCI-60 one-dose screen, 48 h (100 = growth as untreated, 0 = no growth, -100 = all killed)
Settings: 10 µM unless noted
Compounds without any hit were thinned out: in the full panel of roughly 83,000, 20% have a hit.
For each entry below, report its growth value.
I only need the number, in %, no unit after it.

Problem: Return value of growth for input COc1cc2ncn3c(=O)c4c5c(sc4nc3c2cc1OC)CCCCC5 , no commentary.
Solution: 79.3

Problem: Return value of growth for input CC1(C)Cc2c(Br)c(Br)c(Br)c(OCC(O)CN3CCN(c4ccccn4)CC3)c2O1 (stereo not given) , no commentary.
Solution: -11.7

Problem: Return value of growth for input COc1ccc(C(=O)NC(=O)Nc2ccc3c(c2)NC(=O)/C3=C\c2[nH]c(C)c(C(=O)O)c2C)c(F)c1 , no commentary.
Solution: 46.8

Problem: Return value of growth for input Cc1cc(N2CCOCC2)nc(N(CCNc2ccnc3cc(Cl)ccc23)Cc2ccco2)n1 , no commentary.
Solution: 40.7

Problem: Return value of growth for input CN1CCN(Cn2nc(-c3cc(F)c(Cl)cc3Cl)n(/N=C/c3ccc(N(C)C)cc3)c2=S)CC1 , no commentary.
Solution: 57.8

====

Tested on: SR leukemia
Assay: NCI-60 one-dose screen, 48 h (100 = growth as untreated, 0 = no growth, -100 = all killed)
Conditions: 10 µM unless noted
About 83,000 compounds went through this panel and 20% of them were active in at least one assay; those are over-represented in the sample as a whole.
For each entry below, report its growth value.
I only need the number, in %, no unit after it.

Problem: Return value of growth for input O=C(NCCNc1nccc(-c2c(-c3cccc(O)c3)nc3sccn23)n1)c1ccccc1 , no commentary.
Solution: 68

Problem: Return value of growth for input Cc1ccccc1C[P+](c1ccccc1)(c1ccccc1)c1ccccc1 , no commentary.
Solution: 22.2

Problem: Return value of growth for input CN(C)c1ccc(/C=N/N=C(N)N)cc1 , no commentary.
Solution: 54.8

Problem: Return value of growth for input CCCC(C)(C)COC(=O)c1cccc(N)c1 , no commentary.
Solution: 92.8

Problem: Return value of growth for input COc1cc(NC(=O)C#Cc2ccccc2)c(OC)cc1Cl , no commentary.
Solution: 12.4

====

System: EKVX NSCLC
Test: NCI-60 one-dose screen, 48 h
Details: 10 µM unless noted
About 83,000 compounds went through this panel and 20% of them were active in at least one assay; those are over-represented in the sample as a whole. The source made the active and inactive calls. The calls were made as follows: active = growth percent below 10; inactive = the rest.
Response enum: 1 = active, -1 = inactive

Problem: For this compound, state the assay outcome: CN1CCN(Cn2nc(-c3cc(Cl)cc(Cl)c3Cl)n(/N=C/c3ccc(Cl)cc3)c2=S)CC1
Solution: -1

Problem: For this compound, state the assay outcome: COc1ccc(-c2c(NC(=O)Nc3ccc(Cl)c(C(F)(F)F)c3)cnn2-c2ccc(S(N)(=O)=O)cc2)cc1
Solution: -1

Problem: For this compound, state the assay outcome: CSc1ccc(C(=O)C[n+]2cccc(C)c2)cc1
Solution: -1

Problem: For this compound, state the assay outcome: CC1(C)Cc2c(Br)c(Br)c(Br)c(OCC(O)CN3CCN(c4ccccn4)CC3)c2O1 (centres undefined)
Solution: -1

Problem: For this compound, state the assay outcome: O=C(Nc1ccccc1Cl)c1c[nH]c(=O)c(-c2ccc(N3CCCOC4(CC4)C3)cc2)c1
Solution: -1

Problem: For this compound, state the assay outcome: O=C(NNC(=O)c1ccc([N+](=O)[O-])cc1)c1ccc([N+](=O)[O-])cc1
Solution: -1

Problem: For this compound, state the assay outcome: O=C1C(SCCO)=C(SCCO)C(=O)N1c1ccc(-c2ccccc2)cc1
Solution: -1

Problem: For this compound, state the assay outcome: CCN(CC)CCNCC(O)Cc1ccc(OC)cc1 (centres undefined)
Solution: -1

Problem: For this compound, state the assay outcome: C=C1C(=O)O[C@H]2[C@H]1CC/C(COC(=O)c1ccc(Br)cc1)=C\CC[C@@]1(C)O[C@@H]21
Solution: 1

====

System: KM12 colon
Test: NCI-60 one-dose screen, 48 h (100 = growth as untreated, 0 = no growth, -100 = all killed)
Conditions: 10 µM unless noted
About 83,000 compounds went through this panel and 20% of them were active in at least one assay; those are over-represented in the sample as a whole.
Decision: growth compared against 90%; not below it gives true, below it gives false.

Problem: Does growth meet or surpass 90% for CC(=O)N1N=C(CCC(=O)c2nc3ccc([N+](=O)[O-])cc3[nH]2)OC1c1ccc(O)cc1 (stereo not drawn) ?
Solution: true

Problem: Does growth meet or surpass 90% for CC(C(=O)O)N1C(N)=NNC1c1ccccc1O (stereo not drawn) ?
Solution: true

Problem: Does growth meet or surpass 90% for O=C(NCCNc1nccc(-c2c(-c3cccc(O)c3)nc3sccn23)n1)c1cc(N2CCOCC2)cc(C(F)(F)F)c1 ?
Solution: true

Problem: Does growth meet or surpass 90% for COc1ccc2c(c1)O/C(=C/c1ccc(OCC(=O)Nc3ccc(S(N)(=O)=O)cc3)cc1)C2=O ?
Solution: true

Problem: Does growth meet or surpass 90% for CCc1cccc(-c2ccccc2)c1 ?
Solution: true

Problem: Does growth meet or surpass 90% for c1ccc2nc(Cn3cc[n+](Cc4ccc5ccccc5n4)c3)ccc2c1 ?
Solution: false

Problem: Does growth meet or surpass 90% for CC(C)CNCC(=O)Nc1ccc(Cc2ccc(NC(=O)CNCC(C)C)cc2)cc1 ?
Solution: false

Problem: Does growth meet or surpass 90% for O=C1OC(c2ccc(-c3ccccc3)cc2)=C/C1=C/C=C/c1ccccc1 ?
Solution: true

Problem: Does growth meet or surpass 90% for C=C1C(=O)O[C@H]2[C@H]1CC/C(COC(=O)OC/C1=C/CC[C@@]3(C)O[C@H]3[C@H]3OC(=O)[C@@H](CN(C)C)[C@@H]3CC1)=C\CC[C@@]1(C)O[C@@H]21 ?
Solution: false

Problem: Does growth meet or surpass 90% for O=C(/C=C/c1ccco1)c1cccc(Nc2nc(Nc3ccccc3)nc(Nc3ccccc3)n2)c1 ?
Solution: false

Problem: Does growth meet or surpass 90% for CCN(CC)CCNC(=O)c1c(C)[nH]c(/C=C2\C(=O)Nc3cc(NC(=O)NC(=O)c4ccc(OC)cc4F)ccc32)c1C ?
Solution: false

Problem: Does growth meet or surpass 90% for CCCCCCCCCCCC(=O)OCCNC(=O)C[n+]1ccccc1 ?
Solution: true

Problem: Does growth meet or surpass 90% for Cc1cn(-c2cc(C(=O)Nc3cccc(-n4ccc5c(NC(=O)c6ccccc6)nccc54)c3)cc(C(F)(F)F)c2)cn1 ?
Solution: false

====

For each entry below, report its growth value.
System: SK-MEL-2 melanoma
Assay: NCI-60 one-dose screen, 48 h (100 = growth as untreated, 0 = no growth, -100 = all killed)
Settings: 10 µM unless noted
Compounds without any hit were thinned out: in the full panel of roughly 83,000, 20% have a hit.
I only need the number, in %, no unit after it.

Problem: Find the measured growth of CCN(CC)CCNC(=O)c1c(C)[nH]c(/C=C2\C(=O)Nc3cc(NC(=O)NC(=O)c4ccc(OC)cc4F)ccc32)c1C with SK-MEL-2 melanoma as test system.
Solution: 128

Problem: Find the measured growth of CCn1cc(/C=C2\Oc3cc(OCC#N)ccc3C2=O)c2cc(OC)ccc21 with SK-MEL-2 melanoma as test system.
Solution: 37.5

Problem: Find the measured growth of COc1ccc(-c2nn(-c3ccc(NC(=O)Nc4cc(C(F)(F)F)cc(C(F)(F)F)c4)cc3)cc2-c2ccncc2)cc1Cl with SK-MEL-2 melanoma as test system.
Solution: -38.3

Problem: Find the measured growth of CCCCCCCCCCCCCCCCCCNCc1ccc(Cl)cc1 with SK-MEL-2 melanoma as test system.
Solution: -73.3

Problem: Find the measured growth of Cc1cc[n+](CCCC[n+]2ccc(C)cc2)cc1 with SK-MEL-2 melanoma as test system.
Solution: 124

Problem: Find the measured growth of O=C(O)c1ccc(-c2nn(-c3ccc(C(=O)O)cc3)cc2/C=N/Nc2c(F)c(F)cc(F)c2F)cc1 with SK-MEL-2 melanoma as test system.
Solution: 99.1

====

For each entry below, report its growth value.
System: ACHN renal
Experiment: NCI-60 one-dose screen, 48 h (100 = growth as untreated, 0 = no growth, -100 = all killed)
Settings: 10 µM unless noted
This is part of a sample that, as a whole, favours compounds with a hit. Of some 83,000 tested, about 20% had one in any assay.
I only need the number, in %, no unit after it.

Problem: Return value of growth for input COc1ccccc1S(=O)(=O)Nc1ccc2c3c(cc(-c4ccoc4)nc13)C(=O)N2C , no commentary.
Solution: 70.6

Problem: Return value of growth for input CN1CCN(Cn2nc(-c3cc(F)c(Cl)cc3Cl)n(/N=C/c3ccc(N(C)C)cc3)c2=S)CC1 , no commentary.
Solution: 92.7

Problem: Return value of growth for input COc1ccc2c(c1)nnn1c3ncccc3c(N=O)c21 , no commentary.
Solution: -30.8

Problem: Return value of growth for input Cc1ccc(-c2cc(-c3nnc(SCC(=O)c4ccccc4)o3)c3ccccc3n2)cc1 , no commentary.
Solution: 93.9

Problem: Return value of growth for input COc1ccccc1S(=O)(=O)Nc1ccc2c3c(cc(-c4cnn(C5CC5)c4)nc13)C(=O)N2C , no commentary.
Solution: 68

Problem: Return value of growth for input COc1ccc(C(=O)NC(=O)Nc2ccc3c(c2)NC(=O)/C3=C\c2[nH]c(C)c(CCC(=O)O)c2C)c(F)c1 , no commentary.
Solution: 67

Problem: Return value of growth for input O=C(NCCNc1nccc(-c2c(-c3cccc(O)c3)nc3sccn23)n1)c1cccc(C(F)(F)F)c1 , no commentary.
Solution: 66.1

Problem: Return value of growth for input O=C(N/N=C/c1ccccc1O)c1ccccc1O , no commentary.
Solution: 16.7

Problem: Return value of growth for input CCc1ccc(C2=C/C(=C/c3ccc(Cl)cc3)C(=O)N2CCc2ccc(S(N)(=O)=O)cc2)cc1 , no commentary.
Solution: 14.9

The origin of these recorded values is PubChem BioAssay (NCI).
